From: patent US20260184766A1

system: pseudotyped virus carrying B.1.351 or "SA" variant (beta lineage) spike; format: cell-based, SARS-CoV-2; details: read-out: Virus Neutralization Pseudovirus (nM) Beta
# EC50 per record follows
measure: EC50 (nM)

{"columns": ["polymer sequence", "target under test", "scale unit", "result number"],
 "data": [
  ["HWTCPDGYEHTCGCIGGCGCKRSACIGALCCQASLGGWLSDSF [2G3 knob HWSF]", "pseudotyped virus carrying B.1.351 or \"SA\" variant (beta lineage) spike", "nM", 7.82],
  ["ISTCPDGYEHTCGCIGGCGCKRSACIGALCCQASLGGWLSDTV [2G3 knob ISTV]", "pseudotyped virus carrying B.1.351 or \"SA\" variant (beta lineage) spike", "nM", 20.9],
  ["TCPDGYEHTCGCIGGCGCKRSACIGALCCQASLGGWLSD [2G3 Knob]", "pseudotyped virus carrying B.1.351 or \"SA\" variant (beta lineage) spike", "nM", 15.7]
]}
